- TESTED_TARGET: human ether-à-go-go-related gene (hERG) potassium channel (human)
- MEASUREMENT_NOTES: primary screen, population patch clamp on CHO cells stably expressing hERG; higher = less effect of the substance
Screen size: about 310,000 compounds; about 14,000 (4.5%) showed an effect of 50% or more. The effect is printed as a negative number. Only a selection was taken, and strong results are over-represented in it overall.
So I've got a bunch of compounds here, and I need their hERG current change (%, negative = inhibition) at 10uM values.
Write the value in % as a bare number.

Exercise: Please report the measured hERG current change (%, negative = inhibition) at 10uM for O=C(C1CCC1)N1CCN(c2ccccc2)CC1 tested on human ether-à-go-go-related gene (hERG) potassium channel (human).
Key: 13.6

Exercise: With human ether-à-go-go-related gene (hERG) potassium channel (human) as the test system, provide measured hERG current change (%, negative = inhibition) at 10uM for this compound: CC(C)CN1CCN(Cc2cccc3ncccc23)CC1CCO (centres unmarked)
Key: -2.49

Exercise: State, for human ether-à-go-go-related gene (hERG) potassium channel (human), measured hERG current change (%, negative = inhibition) at 10uM of the compound listed here: CC(C)=CCN1CCN(Cc2cccn2-c2ccccn2)CC1CCO (centres unmarked)
Key: -55.4

Exercise: State, for human ether-à-go-go-related gene (hERG) potassium channel (human), measured hERG current change (%, negative = inhibition) at 10uM of the compound listed here: CC(C)N1CCN(Cc2cccn2-c2ccccn2)CC1CCO (centres unmarked)
Key: -31.2

Exercise: Give reported hERG current change (%, negative = inhibition) at 10uM for Cc1ccccc1CN1CCC(n2nccc2NC(=O)c2ccc3c(c2)OCO3)CC1 (human ether-à-go-go-related gene (hERG) potassium channel (human))
Key: -9.06

Exercise: // fetch hERG current change (%, negative = inhibition) at 10uM; item: COc1ccc(C(=O)N2CCC(C(=O)N3CCN(c4ccccc4)CC3)CC2)cc1 ; system: human ether-à-go-go-related gene (hERG) potassium channel (human)
Key: -48.7

Exercise: Give hERG current change (%, negative = inhibition) at 10uM for COc1cccc(C(=O)N2CCC3(CC2)OCCO3)c1 tested on human ether-à-go-go-related gene (hERG) potassium channel (human).
Key: 20.3

Exercise: Find the measured hERG current change (%, negative = inhibition) at 10uM of CC(C)CN1CCN(Cc2cccn2-c2ccccn2)CC1CCO (centres unmarked) with human ether-à-go-go-related gene (hERG) potassium channel (human) as test system.
Key: -55.9

Exercise: State the measured hERG current change (%, negative = inhibition) at 10uM (human ether-à-go-go-related gene (hERG) potassium channel (human)) of O=C(CNS(=O)(=O)c1ccc(Br)cc1)N1CCN(Cc2ccccc2)CC1
Key: -17.2

Exercise: Check human ether-à-go-go-related gene (hERG) potassium channel (human) data and give hERG current change (%, negative = inhibition) at 10uM for COc1ccc(CNC(=S)N/N=C(/C)c2ccccc2)cc1 .
Key: -6.47

Exercise: GET hERG current change (%, negative = inhibition) at 10uM where system = human ether-à-go-go-related gene (hERG) potassium channel (human) and item = CS(=O)(=O)c1ccc(Oc2ccc(-c3nnco3)cc2)c([N+](=O)[O-])c1
Key: -7.35

---

- TESTED_TARGET: human ether-à-go-go-related gene (hERG) potassium channel (human, UniProt Q12809)
- Sequence (Q12809 whole entry, looked up): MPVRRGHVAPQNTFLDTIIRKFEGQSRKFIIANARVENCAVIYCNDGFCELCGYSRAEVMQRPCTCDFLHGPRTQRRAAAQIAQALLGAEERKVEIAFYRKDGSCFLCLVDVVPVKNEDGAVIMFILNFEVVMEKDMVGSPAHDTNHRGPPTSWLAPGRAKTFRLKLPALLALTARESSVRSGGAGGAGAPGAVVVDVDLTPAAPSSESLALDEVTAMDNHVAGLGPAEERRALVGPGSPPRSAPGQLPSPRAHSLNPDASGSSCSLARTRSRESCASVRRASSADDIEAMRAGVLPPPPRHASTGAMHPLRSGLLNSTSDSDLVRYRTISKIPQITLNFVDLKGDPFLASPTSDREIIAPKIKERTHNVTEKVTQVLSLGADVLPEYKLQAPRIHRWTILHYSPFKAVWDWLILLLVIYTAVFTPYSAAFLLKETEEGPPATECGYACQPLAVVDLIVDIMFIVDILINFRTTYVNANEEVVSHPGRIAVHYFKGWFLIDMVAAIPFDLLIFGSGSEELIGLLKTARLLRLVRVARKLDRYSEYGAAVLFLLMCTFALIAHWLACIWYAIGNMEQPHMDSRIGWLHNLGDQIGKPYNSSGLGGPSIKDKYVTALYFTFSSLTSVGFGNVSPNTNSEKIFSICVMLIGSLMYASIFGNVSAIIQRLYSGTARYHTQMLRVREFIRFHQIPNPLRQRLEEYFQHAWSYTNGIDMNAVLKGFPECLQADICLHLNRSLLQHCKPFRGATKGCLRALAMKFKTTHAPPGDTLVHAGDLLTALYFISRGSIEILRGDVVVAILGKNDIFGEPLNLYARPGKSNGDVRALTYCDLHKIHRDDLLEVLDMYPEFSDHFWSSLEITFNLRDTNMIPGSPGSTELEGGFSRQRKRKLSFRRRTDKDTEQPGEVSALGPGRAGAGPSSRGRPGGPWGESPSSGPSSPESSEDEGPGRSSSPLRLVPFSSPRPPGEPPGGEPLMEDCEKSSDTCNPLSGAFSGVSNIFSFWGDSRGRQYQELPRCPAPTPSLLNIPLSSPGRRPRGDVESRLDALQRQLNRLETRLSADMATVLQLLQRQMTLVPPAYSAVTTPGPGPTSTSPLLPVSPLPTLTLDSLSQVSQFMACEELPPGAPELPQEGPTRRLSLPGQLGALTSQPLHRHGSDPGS
- MEASUREMENT_NOTES: primary screen, population patch clamp on CHO cells stably expressing hERG; higher = less effect of the substance
In all, about 310,000 compounds went through this assay and about 14,000 (4.5%) showed an effect of 50% or more. The effect is printed as a negative number. This excerpt belongs to a sample that is enriched for strong results.
Assignment: determine reported hERG current change (%, negative = inhibition) at 10uM for the given compounds.
The answer consists of two parts: a number and, after it, its unit.

Exercise: Please report hERG current change (%, negative = inhibition) at 10uM with human ether-à-go-go-related gene (hERG) potassium channel (human, UniProt Q12809) for item CCOC(=O)N1CCN(C(=O)C2CCCN(Cc3nc(-c4ccc(Cl)cc4)oc3C)C2)CC1 (centres unmarked) .
Key: -70.9%

Exercise: Please respond with reported hERG current change (%, negative = inhibition) at 10uM (system human ether-à-go-go-related gene (hERG) potassium channel (human, UniProt Q12809)) for CCOc1ccc(CCNc2nc3c(c(=O)n(C)c(=O)n3C)n2CC)cc1OCC .
Key: 3.1%

Exercise: Quote human ether-à-go-go-related gene (hERG) potassium channel (human, UniProt Q12809) hERG current change (%, negative = inhibition) at 10uM for entry CCOC(=O)N1CCC(NC(=O)CS(=O)Cc2nc(-c3ccc(Cl)cc3)oc2C)CC1 (centres unmarked) .
Key: -47.4%

Exercise: Param request: hERG current change (%, negative = inhibition) at 10uM | system human ether-à-go-go-related gene (hERG) potassium channel (human, UniProt Q12809) | item COc1ccc(CN2CCN(Cc3ccccc3F)CC2)c(OC)c1.O=C(O)C(=O)O;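 note: peak tail current of the secondary pulse compared with the same well before compound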
Key: -68.5%

Exercise: GET hERG current change (%, negative = inhibition) at 10uM where system = human ether-à-go-go-related gene (hERG) potassium channel (human, UniProt Q12809) and item = O=C(CSc1ccccn1)N1CCN(c2ccccc2)CC1;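 note: peak tail current of the secondary pulse compared with the same well before compound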
Key: 7.55%

---

- TESTED_TARGET: human ether-à-go-go-related gene (hERG) potassium channel (human);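 note: peak tail current of the secondary pulse compared with the same well before compound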
- MEASUREMENT_NOTES: primary screen, population patch clamp on CHO cells stably expressing hERG; higher = less effect of the substance
- Procedure: Briefly, Chinese hamster ovary (CHO) cells stably expressing the hERG channel were dislodged from tissue culture flasks and dispensed into PPC plates. […] During the recording, background leak currents were estimated by a 100 ms step to -80 mV from an initial holding potential of -70 mV and subtracted from the subsequent current measurement. The campaign was conducted in two phases using slight differences in recording protocol. […]
Hit rate of the full screen: of about 310,000 compounds, about 14,000 (4.5%) showed an effect of 50% or more. Effects have a minus sign here. What follows is part of a selection rich in strong results, with near analogues and random picks from the rest.
QUANTITY_MEASURED: hERG current change (%, negative = inhibition) at 10uM (%)
Number only, in %; omit the unit.

Exercise: Assign hERG current change (%, negative = inhibition) at 10uM to the following record: CCn1ccnc1CN1CCCC(C(=O)c2ccc3cc(OC)ccc3c2)C1 (stereo not shown)
Key: -70.6

Exercise: Consider the compound COc1ccc(Cl)cc1C(=O)C1CCCN(Cc2cnc(C)s2)C1 (stereo not shown) . State its measured hERG current change (%, negative = inhibition) at 10uM.
Key: -38.1

Exercise: Using the record for O=C(CN1C(=O)c2cccc3cccc1c23)NCc1ccc2c(c1)OCO2 , state its measured hERG current change (%, negative = inhibition) at 10uM.
Key: -13.2

Exercise: Please report hERG current change (%, negative = inhibition) at 10uM for the following compound: N/C(CS(=O)(=O)c1ccc(F)cc1)=N\O
Key: 11.8

Exercise: Give the reported value of hERG current change (%, negative = inhibition) at 10uM for this record: CCn1ccnc1CN1CCCC(C(=O)c2ccc(SC)cc2)C1 (stereo not shown)
Key: -58.3

Exercise: Return hERG current change (%, negative = inhibition) at 10uM (reported value) for this compound: CSc1ccc(C(=O)C2CCCN(C(=O)c3ccc(C)nc3)C2)cc1 (stereo not shown)
Key: -22.4

Exercise: Note down hERG current change (%, negative = inhibition) at 10uM recorded for CCn1ccnc1CN1CCCC(C(=O)c2cc(Cl)ccc2OC)C1 (stereo not shown)
Key: -73.3

Exercise: Please report the measured hERG current change (%, negative = inhibition) at 10uM for COc1ccc(Cl)cc1C(=O)C1CCCN(Cc2cnc(N3CCOCC3)s2)C1 (stereo not shown)
Key: -57.6

Exercise: Quick one: give measured hERG current change (%, negative = inhibition) at 10uM for CCCCNC(=O)c1onc(CSc2ccc(Cl)cc2)c1C(=O)NCCCC
Key: -20.5

Exercise: Using known records, supply hERG current change (%, negative = inhibition) at 10uM for CSc1ccc(C(=O)C2CCCN(C(=O)Cn3cnnn3)C2)cc1 (stereo not shown)
Key: -12.8

---

- TESTED_TARGET: human ether-à-go-go-related gene (hERG) potassium channel (human);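 note: peak tail current of the secondary pulse compared with the same well before compound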
- MEASUREMENT_NOTES: primary screen, population patch clamp on CHO cells stably expressing hERG; higher = less effect of the substance
Among all 310,000 compounds or so, about 14,000 (4.5%) showed an effect of 50% or more. The effect is printed as a negative number. The full list was thinned out, with strong results kept by preference.
Please go through the items and note down their hERG current change (%, negative = inhibition) at 10uM.
Give your result in % as a bare value.

Exercise: Return hERG current change (%, negative = inhibition) at 10uM for the following compound: Cc1ccc(S(=O)(=O)N2CCN(CC(=O)N/N=C/c3ccco3)CC2)cc1
Key: -33

Exercise: Give hERG current change (%, negative = inhibition) at 10uM for the following compound: O=C(COc1ccc(F)cc1)c1ccc2c(c1)CCCC2
Key: -5.65

Exercise: Give a short answer stating reported hERG current change (%, negative = inhibition) at 10uM for O=S1(=O)NC(=NCc2ccco2)c2ccccc21 .
Key: 2.66

Exercise: Note down hERG current change (%, negative = inhibition) at 10uM recorded for Cc1ccc(N(C(=O)c2ccc(S(=O)(=O)N3CCOCC3)cc2)C2C=CS(=O)(=O)C2)cc1 (centres unmarked)
Key: 3.58

Exercise: Read off the recorded hERG current change (%, negative = inhibition) at 10uM for COc1cccc(Cn2cc(C)cc(NC(=O)NCc3ccccc3)c2=O)c1
Key: 11.9
